Target: T1, mouse TMEM106B (mouse, UniProt Q80X71 2-275)
T1 construct: on transiently transfected HEK293 cells, or natively expressed on mouse Neuro2a cells; also called moTMEM106B; murine TMEM106B
Assay: FACS, HEK293 transfectants;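 further: flow cytometry binding of hybridoma supernatants to HEK293 cells transiently expressing human, cyno or mouse TMEM106B, read as anti-mouse-APC median fluorescence, live cells only, 30 min on ice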
MEASUREMENT_NAME: fold-change over parental HEK293
Please report the result as a number followed by the unit.

Consider the worked cases shown below.
BINDER	fold-change over parental HEK293
anti-TMEM106B antibody TM-13 (antibody, V domains shown) VH: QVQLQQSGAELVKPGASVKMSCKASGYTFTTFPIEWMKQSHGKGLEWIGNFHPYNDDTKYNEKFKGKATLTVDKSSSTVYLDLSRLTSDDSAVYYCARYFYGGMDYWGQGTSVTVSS VL: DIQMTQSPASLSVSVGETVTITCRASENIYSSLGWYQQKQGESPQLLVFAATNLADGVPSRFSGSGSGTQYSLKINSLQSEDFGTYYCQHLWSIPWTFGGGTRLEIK	52.7 fold
anti-TMEM106B antibody TM-7 (antibody, V domains shown) VH: EVQLQQSGPVLVKPGPPVKISCKASGFTFTDYYIHWVKLSHGKSLEWIGLVYPYNGDTDYNQKFKGKATLTVDTSSSTAYMELNSLTSEDSAVYYCARTYYANSPDYWGQGTTVTVSS VL: DIVMTQSPSSLSVSAGEKVTMSCKSSQSLLNSGNQRNYLAWYQQKPGQPPKLLIYGASTRESGVPDRFTGSGSGTDFTLTISNVQAEDLAVYYCQNDHSYPLTFGAGTKLELK	15.5 fold
anti-TMEM106B antibody TM-16 (antibody, V domains shown) VH: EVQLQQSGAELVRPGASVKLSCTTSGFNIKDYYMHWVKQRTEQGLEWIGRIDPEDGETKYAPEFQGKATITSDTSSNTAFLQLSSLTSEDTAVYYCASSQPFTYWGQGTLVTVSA VL: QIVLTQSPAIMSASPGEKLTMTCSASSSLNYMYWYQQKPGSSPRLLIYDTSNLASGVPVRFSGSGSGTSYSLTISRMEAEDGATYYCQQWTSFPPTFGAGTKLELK	1.42 fold

Sample anti-TMEM106B antibody TM-23 (antibody, V domains shown) VH: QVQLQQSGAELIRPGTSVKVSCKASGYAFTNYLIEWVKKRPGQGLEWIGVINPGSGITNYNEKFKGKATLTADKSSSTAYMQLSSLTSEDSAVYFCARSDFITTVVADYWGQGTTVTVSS VL: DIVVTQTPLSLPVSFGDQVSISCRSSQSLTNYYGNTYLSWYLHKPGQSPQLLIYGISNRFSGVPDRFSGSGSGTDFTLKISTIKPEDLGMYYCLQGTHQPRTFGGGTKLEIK ; fold-change over parental HEK293 observed: 4.46 fold

Sample anti-TMEM106B antibody TM-11 (antibody, V domains shown) VH: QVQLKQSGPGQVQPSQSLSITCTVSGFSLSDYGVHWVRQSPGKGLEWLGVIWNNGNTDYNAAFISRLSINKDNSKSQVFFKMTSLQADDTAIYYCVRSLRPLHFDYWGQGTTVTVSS VL: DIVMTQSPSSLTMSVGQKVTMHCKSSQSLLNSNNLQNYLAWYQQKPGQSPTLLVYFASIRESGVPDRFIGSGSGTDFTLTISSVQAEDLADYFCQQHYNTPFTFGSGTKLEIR ; fold-change over parental HEK293 observed: 18.3 fold

Sample anti-TMEM106B antibody TM-50 (antibody, V domains shown, mouse IgG from hybridoma) VH: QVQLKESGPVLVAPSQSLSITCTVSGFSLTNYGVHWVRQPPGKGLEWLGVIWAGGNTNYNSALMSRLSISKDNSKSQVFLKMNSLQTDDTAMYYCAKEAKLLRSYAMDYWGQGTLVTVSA VL: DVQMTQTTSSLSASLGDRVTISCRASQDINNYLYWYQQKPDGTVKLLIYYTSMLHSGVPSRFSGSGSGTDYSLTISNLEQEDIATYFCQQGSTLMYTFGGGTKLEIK ; fold-change over parental HEK293 observed: 17.5 fold

Sample anti-TMEM106B antibody TM-28 (antibody, V domains shown) VH: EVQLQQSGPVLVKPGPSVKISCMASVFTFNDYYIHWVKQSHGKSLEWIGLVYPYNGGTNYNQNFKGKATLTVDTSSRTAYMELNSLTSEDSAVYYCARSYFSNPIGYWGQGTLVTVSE VL: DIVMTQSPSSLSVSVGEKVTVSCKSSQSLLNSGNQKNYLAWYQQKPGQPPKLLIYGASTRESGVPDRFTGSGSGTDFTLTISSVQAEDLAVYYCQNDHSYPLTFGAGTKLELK ; fold-change over parental HEK293 observed: 22.1 fold
